# Test system: blackgrass (Alopecurus myosuroides)
# experiment notes: Test A postemergence
# Assay type: in vivo
# test conditions: Alopecurus myosuroides, post-emergence, 240 h, 125 g ai/ha, postemergence, visual injury vs untreated controls after approx. 10 d; 0 = no effect, 100 = complete control; read-out: Blackgrass plant response rating (0 to 100 scale)

[
  {
    "compound": "Cc1c(F)cccc1NC(=O)[C@H]1C(=O)N(C)C[C@@H]1c1ccc(F)cc1",
    "pest or weed control at 125 g/ha": "30%"
  },
  {
    "compound": "COc1cc(C(F)(F)F)ccc1[C@H]1CNC(=O)[C@@H]1C(=O)Nc1ccccc1F",
    "pest or weed control at 125 g/ha": "0%"
  },
  {
    "compound": "Cc1nc([C@H]2CNC(=O)[C@@H]2C(=O)Nc2ccccc2F)cs1",
    "pest or weed control at 125 g/ha": "0%"
  },
  {
    "compound": "CCc1cc([C@H]2CN(C)C(=O)[C@@H]2C(=O)Nc2cccc(F)c2F)cs1",
    "pest or weed control at 125 g/ha": "0%"
  },
  {
    "compound": "O=C1NC[C@H](c2cccc(C(F)(F)F)c2)C1C(=O)Nc1ccccc1CO (stereo partly drawn)",
    "pest or weed control at 125 g/ha": "0%"
  },
  {
    "compound": "CN1C[C@H](c2cccc(C(F)(F)F)c2)[C@@H](C(=O)Nc2ccccc2CCO)C1=O (racemic)",
    "pest or weed control at 125 g/ha": "0%"
  }
]

###

pest or weed control at 125 g/ha for assorted compounds
# Tested on: ryegrass, Italian (Italian ryegrass, Lolium multiflorum)
# experiment notes: Test A postemergence
# Type: in vivo
# test conditions: Lolium multiflorum, post-emergence, 240 h, 125 g ai/ha, postemergence; visual injury after approximately 10 d; 0 to 100 scale (0 no effect, 100 complete control); read-out: Plant response rating, Ryegrass, Italian
measure: pest or weed control at 125 g/ha (%)

[
  {
    "compound": "Cc1cc([C@H]2CN(C)C(=O)[C@@H]2C(=O)Nc2ccccc2F)cc(C)c1C [Compound 797]",
    "recorded number": 40
  },
  {
    "compound": "CN1C[C@H](c2cccc(C(F)(F)F)c2)[C@@H](C(=O)Nc2ccccc2C2CC2)C1=O [Compound 749]",
    "recorded number": 0
  },
  {
    "compound": "CCc1cc(CC)cc([C@H]2CN(C)C(=O)[C@@H]2C(=O)Nc2ccccc2F)c1 [Compound 735]",
    "recorded number": 60
  },
  {
    "compound": "CN1C[C@H](c2cc(F)cc(F)c2)[C@@H](C(=O)NC2CCc3ccccc32)C1=O (stereo partly shown) [Compound 755]",
    "recorded number": 0
  },
  {
    "compound": "Cc1ccc([C@H]2CNC(=S)[C@@H]2C(=O)Nc2cccc(F)c2F)cc1C [Compound 765]",
    "recorded number": 40
  },
  {
    "compound": "CN1C[C@H](c2nccs2)[C@@H](C(=O)Nc2cccc(F)c2F)C1=O [Compound 774]",
    "recorded number": 0
  },
  {
    "compound": "COc1cc([C@H]2CN(C)C(=O)[C@@H]2C(=O)Nc2ccccc2SC)ccc1C(F)(F)F [Compound 769]",
    "recorded number": 30
  }
]

Origin of measurements: patent US12077503B2
